- target.or.system: hRR (hRRM1 and hRRM2) (Homo sapiens, UniProt P23921)
- Sequence (P23921 whole entry): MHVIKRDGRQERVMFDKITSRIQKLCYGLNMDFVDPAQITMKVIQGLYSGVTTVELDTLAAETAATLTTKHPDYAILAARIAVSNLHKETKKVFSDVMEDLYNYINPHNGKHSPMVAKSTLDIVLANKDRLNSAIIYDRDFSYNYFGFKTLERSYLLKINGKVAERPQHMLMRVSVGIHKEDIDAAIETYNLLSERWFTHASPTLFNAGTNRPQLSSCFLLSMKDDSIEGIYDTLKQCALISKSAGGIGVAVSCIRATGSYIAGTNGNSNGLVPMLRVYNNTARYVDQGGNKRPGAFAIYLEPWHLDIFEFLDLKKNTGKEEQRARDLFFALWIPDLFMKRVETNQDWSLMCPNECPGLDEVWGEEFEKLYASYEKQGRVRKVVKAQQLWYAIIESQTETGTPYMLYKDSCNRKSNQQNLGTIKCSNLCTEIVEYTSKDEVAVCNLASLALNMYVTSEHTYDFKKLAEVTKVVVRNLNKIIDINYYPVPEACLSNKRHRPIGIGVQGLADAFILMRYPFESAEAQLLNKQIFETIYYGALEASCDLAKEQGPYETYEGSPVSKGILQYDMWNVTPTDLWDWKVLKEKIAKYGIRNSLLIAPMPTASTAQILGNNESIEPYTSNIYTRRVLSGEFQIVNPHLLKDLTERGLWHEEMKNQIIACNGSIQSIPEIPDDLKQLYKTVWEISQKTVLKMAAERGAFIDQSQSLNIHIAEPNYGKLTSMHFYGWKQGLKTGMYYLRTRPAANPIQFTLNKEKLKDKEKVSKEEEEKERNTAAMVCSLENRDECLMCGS
- Sequence (P31350 whole entry partner): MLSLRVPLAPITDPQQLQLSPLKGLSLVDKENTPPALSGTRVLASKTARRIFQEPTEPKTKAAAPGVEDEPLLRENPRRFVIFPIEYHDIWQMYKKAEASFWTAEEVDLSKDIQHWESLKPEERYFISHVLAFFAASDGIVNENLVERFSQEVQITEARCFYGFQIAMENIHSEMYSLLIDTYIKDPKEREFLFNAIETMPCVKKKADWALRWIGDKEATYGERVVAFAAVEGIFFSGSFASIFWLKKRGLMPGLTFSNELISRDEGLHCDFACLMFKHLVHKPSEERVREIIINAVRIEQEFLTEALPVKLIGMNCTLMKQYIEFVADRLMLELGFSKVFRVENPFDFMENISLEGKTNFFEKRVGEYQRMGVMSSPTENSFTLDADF
- method: biochemical
measure: IC50

Consider the worked cases shown below.
>>> measured_result("OCc1ccccc1-n1cc(-c2ccc3cc(O)ccc3c2)nn1")
"607 µM"
>>> measured_result("O=C(Nc1ccccc1C(=O)O)c1ccc2ccccc2n1")
"15.3 µM"
>>> measured_result("O=C(CCCCCCCCC(=O)N/N=C/c1c(O)ccc2ccccc12)N/N=C/c1c(O)ccc2ccccc12 [compound 4]")
"39.8 µM"

Continue with the molecule presented below.
May I ask what IC50 has been recorded for "O=c1oc(-c2ccccc2-c2ccccc2-c2nc3ccccc3c(=O)o2)nc2ccccc12" ?
40.2 µM

Origin of values: patent US20180360782A1
